Molecular target: human FLAP (Homo sapiens (Human), UniProt P20292)
Sequence (P20292 whole entry): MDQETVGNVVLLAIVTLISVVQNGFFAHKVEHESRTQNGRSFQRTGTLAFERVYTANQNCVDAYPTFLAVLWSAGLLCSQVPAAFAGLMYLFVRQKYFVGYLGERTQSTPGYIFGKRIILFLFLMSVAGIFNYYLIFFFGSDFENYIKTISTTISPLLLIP
Experiment: FLAP binding assay (HTRF format)
Conditions: human FLAP wild type, HTRF format; average of two plates, duplicates
pKi: −log10 of the molar value. Structures can show the parent of a compound that is named as a salt.
READOUT: pKi

COMPOUND	pKi
CC(C)CNS(=O)(=O)c1ccccc1-c1ccc(-c2ccc(N)nc2)c(F)c1 [Example 348]	8.30
Nc1ccc(-c2ccc(-c3ccccc3S(=O)(=O)NC3CCCCC3)cc2F)cn1 [Example 346]	8.30
Nc1ncc(-c2ccc(-c3ccccc3S(=O)(=O)N3CCOC(CO)C3)cc2F)cn1 (racemic) [Example 252]	6.90
CC(C)SCc1ccccc1-c1ccc(-c2cnc(N)cn2)c(F)c1 [Example 236, hydrochloride]	7.24
Nc1ccc(-c2ccc(-c3ccccc3S(=O)(=O)N[C@@H](c3ccccc3)C(F)(F)F)cc2F)cn1 [Example 351]	7.77
Nc1cnc(-c2ccc(-c3ccccc3S(=O)(=O)N3CCC(F)(F)C3)cc2F)cn1 [Example 51]	8.40
CC(=O)NCCNS(=O)(=O)c1ccccc1-c1ccc(-c2cnc(N)cn2)c(F)c1 [Example 155]	7.92
Nc1cnc(-c2ccc(-c3ccccc3CSc3cccnn3)cc2F)cn1 [Example 239, hydrochloride]	8.22

[a] Nc1cnc(-c2ccc(-c3ccccc3S(=O)(=O)N3CCN4CCCC4C3)cc2F)cn1 (racemic) [Example 61]
[b] Nc1cnc(-c2ccc(-c3ccccc3S(=O)(=O)NC3CCc4ccccc43)cc2F)cn1 (stereo in doubt) [Example 22]
Qu. // select label with min value of measured pKi from [ a , b ] Mark your answer with the label of the selected entry.
Ans. a

[I] Nc1cnc(-c2ccc(-c3ccccc3S(=O)(=O)N[C@H]3CCCC[C@@H]3O)cc2F)cn1 [Example 162]
[II] CC(C)(C)OC(=O)NC1CCCN(S(=O)(=O)c2ccccc2-c2ccc(-c3cnc(N)cn3)c(F)c2)C1 (racemic) [Example 77]
Qu. Larger number for pKi: I , or II ? Refer to your chosen entry by its label in the reply.
Ans. II
(II: 8.52, I: 8.30)

###

Molecular target: human FLAP (Homo sapiens (Human))
Assay: FLAP binding assay (HTRF format)
Details: wild type FLAP, HTRF format
pKi: −log10 of the molar value. Structures can show the parent of a compound that is named as a salt.
READOUT: pKi

// known answers, use as guide
COMPOUND	pKi
N#Cc1nc(-c2ccc(-c3ccccc3Oc3nccc(N)n3)cc2F)cnc1N [Example 695, trifluoroacetic acid salt]	8.08
CCS(=O)(=O)N(C)c1ccccc1-c1ccc(-c2cnc3[nH]ccc3n2)c(F)c1	8.15
Nc1ncc(-c2ccc(-c3ccccc3OCCO)cc2F)cn1	6.08
COc1ccccc1-c1ccc(-c2cnc(N)cn2)c(F)c1	6.95

[P] Nc1cnc(-c2ccc(-c3ccc(C(F)(F)F)cc3O)cc2F)cn1
[Q] Nc1ncc(-c2ccccc2-c2cnc(-c3cnc(N)nc3)c(F)c2)cn1
Qu. Lab note: check whether P or Q shows the higher recorded pKi. Refer to your chosen entry by its label in the reply.
Ans. P

[P] Nc1ncc(-c2ccc(-c3ccc(C(F)(F)F)cc3S(=O)(=O)NCCO)cn2)cn1
[Q] NC(=O)C1CCN(S(=O)(=O)c2ccccc2-c2ccc(-c3cnc(N)nc3)c(F)c2)CC1
[R] CCS(=O)(=O)Nc1ccccc1-c1ccc(-c2cnc3[nH]ccc3n2)c(F)c1
[S] Nc1cnc(-c2ccc(-c3ccccc3F)cc2F)cn1
Qu. Please order the records by their reported pKi, lowest number first. Present the labels in the sequence the task asks for.
Ans. S, P, R, Q
(S: 6.21, P: 6.75, R: 7.82, Q: 8.27)
